test system: IGFBP-1; test: IGFBP-1 mRNA expression in HepG2 cells; format: cell-based, human; conditions: Experiment 2, insulin treated: HepG2 cells transfected with oligomeric compound, 1 nM insulin for four hours; UTC + 1 nM insulin = 100
In the oligonucleotide strings, read from the 5' end, every base follows the letter of its sugar. An asterisk marks phosphorothioate; unmarked linkages are phosphodiester. Other units and linkages are bracketed, terminal groups are in braces. A string of capitals states the bases alone. e = 2'-O-(2-methoxyethyl) (MOE); [5mC] = 5-methylcytosine; d = 2'-deoxy (DNA)

- SUBSTANCE: "327920 (antisense eG*eA*eG*eA*e[5mC]*e[5mC]*e[5mC]*eA*eG*eT*eA*eG*e[5mC]*e[5mC]*eA*eG*eA*eT*eG*eT*eA*eG*e[5mC]*eT) [compound 327920]"
  IGFBP1 mRNA expression: 267
- SUBSTANCE: "328769 (antisense eA*eG*eG*e[5mC]*eT*dG*dG*dA*d[5mC]*dA*dG*d[5mC]*dA*d[5mC]*dA*e[5mC]*eA*eA*e[5mC]*e[5mC]) [compound 328769]"
  IGFBP1 mRNA expression: 110
- SUBSTANCE: "327897 (antisense eA*e[5mC]*eA*eG*eG*e[5mC]*e[5mC]*eG*eG*eG*eA*e[5mC]*eA*eA*eG*eT*eG*e[5mC]*eA*eA*eT*eA) [compound 327897]"
  IGFBP1 mRNA expression: 243
